Numbers sourced from ChEMBL document CHEMBL1201862.

biological target: Peroxisome proliferator-activated receptor gamma/Nuclear receptor coactivator 1 (Homo sapiens); type: functional;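 further: agonist potency as compounds enhance coactivator SRC-1 recruitment to PPARgamma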
Sequence (P37231 whole entry): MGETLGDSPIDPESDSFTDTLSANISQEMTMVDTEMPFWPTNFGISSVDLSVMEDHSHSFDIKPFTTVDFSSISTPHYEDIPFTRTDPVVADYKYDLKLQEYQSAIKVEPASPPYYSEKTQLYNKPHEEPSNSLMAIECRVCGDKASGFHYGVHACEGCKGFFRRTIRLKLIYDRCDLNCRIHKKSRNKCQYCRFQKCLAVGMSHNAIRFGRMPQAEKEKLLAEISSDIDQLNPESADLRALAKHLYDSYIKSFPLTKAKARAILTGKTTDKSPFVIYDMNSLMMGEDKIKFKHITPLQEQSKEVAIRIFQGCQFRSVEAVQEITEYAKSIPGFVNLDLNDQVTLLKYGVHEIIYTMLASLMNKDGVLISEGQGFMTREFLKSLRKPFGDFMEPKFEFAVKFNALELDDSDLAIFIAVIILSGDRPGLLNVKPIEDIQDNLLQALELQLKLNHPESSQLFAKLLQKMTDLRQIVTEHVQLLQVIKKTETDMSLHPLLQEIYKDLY
Sequence (Q15788 whole entry, further chain): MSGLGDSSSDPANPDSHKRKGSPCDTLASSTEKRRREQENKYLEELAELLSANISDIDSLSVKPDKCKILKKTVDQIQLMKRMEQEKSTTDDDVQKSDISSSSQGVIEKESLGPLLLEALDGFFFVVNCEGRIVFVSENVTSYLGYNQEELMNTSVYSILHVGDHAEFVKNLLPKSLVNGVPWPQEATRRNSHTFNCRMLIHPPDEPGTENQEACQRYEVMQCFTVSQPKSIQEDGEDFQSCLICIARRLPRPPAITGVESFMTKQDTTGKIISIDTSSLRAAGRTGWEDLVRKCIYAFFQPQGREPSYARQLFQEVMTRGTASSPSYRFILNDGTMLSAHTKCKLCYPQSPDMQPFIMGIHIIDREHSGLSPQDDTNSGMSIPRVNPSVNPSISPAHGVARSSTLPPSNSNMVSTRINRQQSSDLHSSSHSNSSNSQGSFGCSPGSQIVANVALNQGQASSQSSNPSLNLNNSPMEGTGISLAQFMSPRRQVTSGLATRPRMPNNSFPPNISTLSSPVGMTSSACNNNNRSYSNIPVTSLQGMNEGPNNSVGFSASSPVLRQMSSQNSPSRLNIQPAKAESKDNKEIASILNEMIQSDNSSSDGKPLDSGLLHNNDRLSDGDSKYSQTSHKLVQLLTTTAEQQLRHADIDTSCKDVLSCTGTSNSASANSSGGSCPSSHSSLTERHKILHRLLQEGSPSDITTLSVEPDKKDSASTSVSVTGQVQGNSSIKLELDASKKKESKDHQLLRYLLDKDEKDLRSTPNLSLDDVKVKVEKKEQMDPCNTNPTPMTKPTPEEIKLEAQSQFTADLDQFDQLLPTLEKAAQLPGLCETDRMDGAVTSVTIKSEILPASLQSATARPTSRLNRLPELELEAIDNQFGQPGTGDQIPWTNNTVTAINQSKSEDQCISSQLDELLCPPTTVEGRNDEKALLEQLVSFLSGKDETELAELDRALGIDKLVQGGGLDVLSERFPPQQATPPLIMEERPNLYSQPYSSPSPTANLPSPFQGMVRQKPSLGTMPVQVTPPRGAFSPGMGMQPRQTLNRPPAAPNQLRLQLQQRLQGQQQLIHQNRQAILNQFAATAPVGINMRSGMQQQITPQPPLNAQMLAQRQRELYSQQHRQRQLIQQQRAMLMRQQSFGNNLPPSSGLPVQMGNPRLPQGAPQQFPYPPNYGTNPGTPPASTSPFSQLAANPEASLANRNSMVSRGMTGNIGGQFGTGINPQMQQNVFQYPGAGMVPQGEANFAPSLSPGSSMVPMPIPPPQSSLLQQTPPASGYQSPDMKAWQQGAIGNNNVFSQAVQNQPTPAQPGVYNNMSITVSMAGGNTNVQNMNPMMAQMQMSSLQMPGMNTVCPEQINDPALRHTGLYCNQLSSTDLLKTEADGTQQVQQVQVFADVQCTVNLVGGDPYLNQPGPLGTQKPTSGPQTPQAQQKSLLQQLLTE
Task for the reader: assign each of the following compounds its reported EC50.

- test-smiles: "O=C(CSc1ccc(Br)c2cccc(Cl)c12)Nc1ccc(S(=O)(=O)Nc2nccs2)cc1"
  measured-quantity: "EC50"
  value-reported: "61 µM (not active)"
- test-smiles: "Cc1ccc(NC(=O)c2sc3ccccc3c2Cl)nc1"
  measured-quantity: "EC50"
  value-reported: "53.2 µM (not active)"
- test-smiles: "COc1ccc(OCC(=O)Nc2cc(-c3nn(C)c(=O)c4ccccc34)ccc2OC)cc1"
  measured-quantity: "EC50"
  value-reported: "62.6 µM (not active)"

For reference, reported EC50 for COC(=O)c1ccccc1NC(=O)c1cc(-c2ccc(O)cc2)on1 stands at 24.9 µM (not active)

====

molecular target: Photoreceptor-specific nuclear receptor (Homo sapiens); assay: NR2E3 inverse agonists, dose response, biochemical, TR-FRET (AID 463256); format: functional
Sequence (Q9Y5X4 whole entry): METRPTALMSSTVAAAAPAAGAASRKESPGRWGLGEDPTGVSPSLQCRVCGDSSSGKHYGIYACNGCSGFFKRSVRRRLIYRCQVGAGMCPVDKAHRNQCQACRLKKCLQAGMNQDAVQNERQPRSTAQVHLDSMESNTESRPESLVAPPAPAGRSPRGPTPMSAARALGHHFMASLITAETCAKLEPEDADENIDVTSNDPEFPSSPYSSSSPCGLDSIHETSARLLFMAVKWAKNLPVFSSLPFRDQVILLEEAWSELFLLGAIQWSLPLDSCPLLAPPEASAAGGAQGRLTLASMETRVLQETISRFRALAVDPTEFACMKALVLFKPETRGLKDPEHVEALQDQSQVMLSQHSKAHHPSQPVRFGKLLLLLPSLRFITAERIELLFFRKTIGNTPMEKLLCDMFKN
Calls of active or inactive are those of the source.
Task for the reader: assign each of the following molecules its reported IC50.

Illustrative cases are given below, each with its answer.
- test-smiles: "CSc1cccc(NC(=O)c2cc(S(=O)(=O)N3CCCCC3)c[nH]2)c1"
  tested-system: "Photoreceptor-specific nuclear receptor (Homo sapiens)"
  value-reported: "3.45 µM (active)"
- test-smiles: "COc1ccc(-c2cn3c(C)c(C(=O)Nc4cc(NC(C)=O)ccc4OC)sc3n2)cc1"
  tested-system: "Photoreceptor-specific nuclear receptor (Homo sapiens)"
  value-reported: "23.2 µM (not active)"
- test-smiles: "CCOc1cnn(Cc2ccccc2)c(=O)c1SCc1ccccc1"
  tested-system: "Photoreceptor-specific nuclear receptor (Homo sapiens)"
  value-reported: "15.5 µM (not active)"
- test-smiles: "O=C(Nc1ccnc(-c2cccnc2)n1)c1ccc(Cl)cc1"
  tested-system: "Photoreceptor-specific nuclear receptor (Homo sapiens)"
  value-reported: "5.23 µM (active)"

Assay Photoreceptor-specific nuclear receptor (Homo sapiens), sample O=C(Nc1nc(-c2nc3ccccc3s2)cs1)c1ccco1 , IC50 read: 2.44 µM (active)

====

molecular target: FAD-linked sulfhydryl oxidase ALR (Homo sapiens, UniProt P55789); experiment: inhibitors of human ALR sulfhydryl oxidase, dose response, biochemical, H2O2 detection, luminescence, cherry-pick (AID 493248)
Sequence (P55789 whole entry): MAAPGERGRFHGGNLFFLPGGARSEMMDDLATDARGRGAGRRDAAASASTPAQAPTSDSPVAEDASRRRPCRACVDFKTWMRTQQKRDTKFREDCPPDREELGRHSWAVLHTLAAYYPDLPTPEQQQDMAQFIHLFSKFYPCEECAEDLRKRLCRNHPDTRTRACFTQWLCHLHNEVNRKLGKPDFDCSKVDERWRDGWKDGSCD
Activity calls are given as the source filed them.
Task for the reader: assign each of the following compounds its reported AC50.

Illustrative cases are given below, each with its answer.
- compound: "CCS(=O)(=O)Nc1c(C(=O)O)[nH]c2ccccc12"
  AC50: "0.6 µM (active)"
- compound: "O=C(CN1CCN(c2ccc(O)cc2)CC1)N(C1CC1)C1CCS(=O)(=O)C1 (stereo unspecified)"
  AC50: "0.238 µM (active)"
- compound: "Cn1nc(-c2ccc(Cl)cc2)c2cc(C(=O)NCCCN3CCCC3)sc21"
  AC50: "6.39 µM (active)"
- compound: "CCN(CCCNC(=O)C1CCC(=O)N1Cc1ccc(C)cc1)c1cccc(C)c1 (stereo unspecified)"
  AC50: "0.677 µM (active)"
- compound: "COC(=O)c1sc(-c2ccc(C(C)(C)C)cc2)cc1NC(=O)c1ccccc1C(=O)O"
  AC50: "0.087 µM (active)"
- compound: "CCN(CC)c1ccc(CN2CCCCCC2)cc1"
  AC50: "3.84 µM (active)"

Each of the following entries comes with a recorded value; kindly state AC50 for each.
1. O=C(NCC(c1cccnc1)N1CCN(c2ccccc2)CC1)C1CCCCC1 (stereo unspecified)
2. CCN(CC)c1ccc(/C=N/NC(=O)c2cccc(N3CCCC3=O)c2)cc1
3. O=c1ccsn1Cc1ccccc1
4. CCCCC(=O)NNC(=O)N1c2ccccc2Sc2ccccc21
5. COc1cc(/C=N/NC(=O)C2C3CCCCC32C)cc(Br)c1O (stereo unspecified)
6. CSc1nc(-c2ccc(Cl)cc2)c[nH]1

1. 19.4 µM (active)
2. 2.14 µM (active)
3. < 0.005 µM (active)
4. 0.919 µM (active)
5. 0.272 µM (active)
6. 2.02 µM (active)

Each of the following entries comes with a recorded value; kindly state AC50 for each.
1. COc1ccc(Nc2c3ccccc3nc3ccccc23)cc1
2. Cn1c(=O)oc2cc(S(=O)(=O)Nc3ccc(O)cc3)ccc21
3. c1ccc2c(CCNc3ncnc4nc[nH]c34)c[nH]c2c1
4. Cn1c(-c2ccc3nc(N)sc3c2)nc2cc(N)ccc21

0.016 µM (active)
1.49 µM (active)
3.85 µM (active)
0.384 µM (active)

====

assay: inhibitors of firefly luciferase expression or activity, dose response, H4 neuroglioma cells, luminescence (AID 1990); assay type: functional, cell-based
Calls of active or inactive are those of the source.
measured-quantity: EC50

Illustrative cases are given below, each with its answer.
- compound: "Cn1c(=O)[nH]c(=O)c2c1nc(N1CCC(Cc3ccccc3)CC1)n2Cc1ccccc1"
  value-reported: "19.4 µM (active)"
- compound: "C=CCNc1nc(NCc2ccccc2)c(C#N)c2c1CN(C)CC2"
  value-reported: "> 120 µM (not active)"

Each of the following entries comes with a recorded value; kindly state EC50 for each.
1. Nc1nc(OCC2CCCCC2)c2nc[nH]c2n1
2. Cc1ccc(NC(=O)C2CCC(CNc3c(N4CCC(C)CC4)c(=O)c3=O)CC2)cc1F (stereo unspecified)
3. CCOC(=O)c1[nH]c2ccccc2c1NC(=O)c1ccc(S(=O)(=O)N2CCCCC2)cc1
4. Cc1ccccc1CN(C)CC(=O)Nc1cccc(S(=O)(=O)N(C)c2ccccc2)c1

16.5 µM (active)
11.5 µM (active)
18.7 µM (active)
> 120 µM (not active)

====

biological target: Cytochrome P450 2C19 (Homo sapiens); test: Cytochrome panel assay with activity outcomes. Panel member name: p450-cyp2c19 Compounds with AC50 equal or less than 10 uM are considered active; format: functional; settings: read-out: AC50
Sequence (P33261 whole entry): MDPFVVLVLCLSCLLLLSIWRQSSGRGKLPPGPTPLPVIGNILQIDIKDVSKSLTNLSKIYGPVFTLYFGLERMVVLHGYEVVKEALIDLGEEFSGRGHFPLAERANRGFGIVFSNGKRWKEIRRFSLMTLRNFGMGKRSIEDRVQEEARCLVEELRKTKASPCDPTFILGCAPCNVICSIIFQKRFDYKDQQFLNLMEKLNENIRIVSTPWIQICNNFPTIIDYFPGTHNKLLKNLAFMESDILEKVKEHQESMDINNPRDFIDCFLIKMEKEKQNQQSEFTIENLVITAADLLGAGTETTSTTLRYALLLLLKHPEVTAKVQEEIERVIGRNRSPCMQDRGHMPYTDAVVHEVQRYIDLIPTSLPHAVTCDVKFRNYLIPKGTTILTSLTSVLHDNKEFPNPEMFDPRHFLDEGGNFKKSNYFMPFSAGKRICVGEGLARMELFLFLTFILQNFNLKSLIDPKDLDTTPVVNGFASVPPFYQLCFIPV
measured-quantity: AC50

Illustrative cases are given below, each with its answer.
- molecule: "Cc1cc(-c2cccs2)nc(-n2cccc2)n1"
  AC50: "5.62 µM (inconclusive)"
- molecule: "O=c1c(-c2ccc(F)cc2)nc2cnc(N3CCNCC3)nc2n1Cc1ccc(F)cc1"
  AC50: "39.8 µM (inconclusive)"
- molecule: "O=C(Nc1cc(Sc2ccccn2)cc([N+](=O)[O-])c1)c1ccc([N+](=O)[O-])cc1"
  AC50: "5.01 µM (inconclusive)"

Each of the following entries comes with a recorded value; kindly state AC50 for each.
1. CCCCNC(=O)C1CC(=O)N(c2ccc(OC)cc2)C1c1ccc(OC)cc1 (stereo not given)
2. COc1cccc(Cn2c(=O)c(C)nc3cnc(N4CCNCC4)nc32)c1
3. CC(=O)N(NC(=O)c1ccccc1Cl)C1CC(=O)N(c2ccc(C)cc2)C1=O (stereo not given)
4. COC(=O)CNC(=O)CN1C(=O)N(c2ccccc2)C(N(O)C(=O)Nc2ccccc2)C1(C)C (stereo not given)
5. CC1=NOC(=O)/C1=C\c1ccc(-c2ccc(Cl)cc2Cl)o1
6. CCn1c(C)cc(/C=C2\NC(=O)N(Cc3ccc(Cl)cc3)C2=O)c1C
7. O=C(NN=C1c2ccccc2-c2ccccc21)c1ccccn1

1: 25.1 µM (inconclusive); 2: 39.8 µM (inconclusive); 3: 1 µM (inconclusive); 4: 3.55 µM (inconclusive); 5: 7.94 µM (inconclusive); 6: 1.78 µM (inconclusive); 7: 2.82 µM (inconclusive)

====

target: Nonstructural protein 1 (Influenza A virus, UniProt Q194T2); assay type: functional, Influenza A virus (A/California/07/2009(H1N1))
Sequence (Q194T2 whole entry): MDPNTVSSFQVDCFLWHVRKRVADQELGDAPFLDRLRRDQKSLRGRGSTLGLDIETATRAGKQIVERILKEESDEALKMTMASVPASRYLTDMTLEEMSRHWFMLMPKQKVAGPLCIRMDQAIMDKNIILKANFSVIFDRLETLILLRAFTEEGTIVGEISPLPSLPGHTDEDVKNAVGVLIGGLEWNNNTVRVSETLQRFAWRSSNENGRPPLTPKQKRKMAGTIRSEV
Active and inactive are the calls of the source.
Task for the reader: assign each of the following compounds its reported IC50.

Illustrative cases are given below, each with its answer.
- test-smiles: "CC(=NNC(=S)N1CC2CCC(CC2)C1)c1nccs1"
  tested-system: "Nonstructural protein 1 (Influenza A virus, UniProt Q194T2)"
  measured-quantity: "IC50"
  value-reported: "13 µM (active)"
- test-smiles: "CN(C)c1ccc([C@@H]2[C@@H]([N+](=O)[O-])[C@H]3C=Cc4ccccc4N3[C@H]2C(=O)c2ccc(Cl)cc2)cc1"
  tested-system: "Nonstructural protein 1 (Influenza A virus, UniProt Q194T2)"
  measured-quantity: "IC50"
  value-reported: "26.5 µM (active)"
- test-smiles: "Oc1c(Cl)cc(CN2CCOCC2)c2cccnc12"
  tested-system: "Nonstructural protein 1 (Influenza A virus, UniProt Q194T2)"
  measured-quantity: "IC50"
  value-reported: "5.97 µM (active)"
- test-smiles: "COc1ccc(Nc2ccc(S(=O)(=O)N3CCCCC3)cc2[N+](=O)[O-])cc1OC"
  tested-system: "Nonstructural protein 1 (Influenza A virus, UniProt Q194T2)"
  measured-quantity: "IC50"
  value-reported: "28.8 µM (active)"
- test-smiles: "COC(=O)c1cc2c(-c3ccccc3)cc3ccccn3c-2c1C(=O)OC"
  tested-system: "Nonstructural protein 1 (Influenza A virus, UniProt Q194T2)"
  measured-quantity: "IC50"
  value-reported: "19.2 µM (active)"

Assay Nonstructural protein 1 (Influenza A virus, UniProt Q194T2), sample NC(=S)NN=Cc1nccc2ccccc12 , IC50 read: 2.03 µM (active)
